The origin of these recorded values is ChEMBL document CHEMBL1134352.

assay_notes: Lethal dose in mouse was determined
Assay type: toxicity, organism-based
conditions_used: in vivo
endpoint_label: LD50

### Prompt Requested field: LD50. Item: CN1C(=O)[C@]23CC4CC(C)(C)[C@@]5(C[C@@]41CN2CC[C@@]3(C)O)C(=O)Nc1c5ccc2c1OC=CC(C)(C)O2 (stereo partly specified)
### Response < 15 mg/kg

----------
assay_notes: Lethal dose in dog was determined
Format: toxicity, organism-based, Canis lupus familiaris
conditions_used: in vivo
endpoint_label: LD50

### Prompt Which LD50 is listed for CN1C(=O)[C@]23CC4CC(C)(C)[C@@]5(C[C@@]41CN2CC[C@@]3(C)O)C(=O)Nc1c5ccc2c1OC=CC(C)(C)O2 (stereo partly specified) ?
### Response 0.5 mg/kg
